tested on: Nilaparvata lugens; test: Insecticidal effect on larvae of brown rice planthopper through systemic activity (root uptake); assay type: in vivo; conditions: 3.1 ppm agent solution at rice roots, larvae placed after 3 days, 4th day, 25° C.
Below, each entry is listed with its recorded Death rate (%) 3.1 ppm.
Note: a bare number is incomplete; add the unit.

{"MOLECULE": "N#Cc1nn(-c2c(Cl)cc(C(F)(F)F)cc2Cl)c(NCc2ccccn2)c1SC(F)F", "RESULT": "100%"}
{"MOLECULE": "N#Cc1nn(-c2c(Cl)cc(C(F)(F)F)cc2Cl)c(NCc2ccncc2)c1SC(F)(F)F", "RESULT": "50%"}
{"MOLECULE": "CSc1c(C#N)nn(-c2c(Cl)cc(C(F)(F)F)cc2Cl)c1NCc1ccncc1", "RESULT": "100%"}

Qu. Using the record for N#Cc1nn(-c2c(Cl)cc(C(F)(F)F)cc2Cl)c(NCc2ccncc2)c1SCF , report its Death rate (%) 3.1 ppm.
Ans. 100%

Qu. And the next one, N#Cc1nn(-c2c(Cl)cc(C(F)(F)F)cc2Cl)c(NCc2ccccn2)c1SC(F)(F)F ?
Ans. 0%

These measurements were taken from patent US7371768B2.
